Molecular target: T1, secretory phospholipase A2 (sPLA2) (Homo sapiens, UniProt P14555 P14555:21-144)
T1 sequence: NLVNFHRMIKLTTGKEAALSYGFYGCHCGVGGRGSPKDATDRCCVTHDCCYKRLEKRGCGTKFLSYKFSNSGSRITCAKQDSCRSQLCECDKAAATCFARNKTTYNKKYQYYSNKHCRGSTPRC
Experiment: filter; biphasic, Kd2 92 nM, mole fraction 0.60; TBSC, 37 C
Conditions: tags: supplied by Eli Lilly
Measure: Kd
Answer with the value and then the unit.

Query :: // query Kd value for entry 85 (ssRNA) RNA: GGGAGCUCAGAAUAAACGCUCAAAUUGCAUCAUGUACCGCAAGACGUAUUCUAUUCGACAUGAGGCCCGGAUCCGGC
Result :: 3.8 nM
